- assay-name: Clearance in Beagle dog at 1 mg/kg, iv
- Assay type: ADME, organism-based, Canis lupus familiaris
- Set-up: dose 1 mg/kg, route intravenous
- experimental-setup: in vivo
In this section we review reported clearance values for a set of compounds.
Only the number, expressed in mL/min/kg, is required.

Field: example entries. Status: answers known.
* CS(=O)(=O)N1CCN(Cc2cc3nc(-c4cnc(N)nc4)nc(N4CCOCC4)c3s2)CC1 | 22
* CS(=O)(=O)N1CCN(Cc2cc3nc(-c4ccc(N)nc4)nc(N4CCOCC4)c3s2)CC1 | 16

Just so you know, measured clearance for CC(C)(O)c1cc2nc(-c3cnc(N)nc3)nc(N3CCOCC3)c2s1 came out at 1.6

###

- assay-name: Clearance in cynomolgus monkey at 1 mg/kg, iv
- Assay type: ADME, organism-based, Macaca fascicularis
- Design: dose 1 mg/kg, route intravenous
- experimental-setup: in vivo
measured-quantity: clearance
# number then unit; no other words

The recorded clearance for CC(C)(O)c1cc2nc(-c3cnc(N)nc3)nc(N3CCOCC3)c2s1 is 15 mL/min/kg

###

- assay-name: Oral bioavailability in Sprague-Dawley rat at 2 mg/kg
- Format: ADME, organism-based
- experimental-setup: in vivo
measured-quantity: bioavailability (%)
Give a bare numeral; the unit % is implied.

Look over these answered cases.
- CC(C)(O)c1cc2nc(-c3cnc(N)nc3)nc(N3CCOCC3)c2s1: 83
- CC(C)(O)c1cc2nc(-c3cccc4[nH]ncc34)nc(N3CCOCC3)c2s1: 29
- CC(=O)NCc1cc2nc(-c3cccc4[nH]ncc34)nc(N3CCOCC3)c2s1: 34

Okay, now this compound:
The compound listed as CC(O)c1cc2nc(-c3cccc4[nH]ncc34)nc(N3CCOCC3)c2s1 (centres undefined) shows bioavailability equal to 17

###

- assay-name: AUC in cynomolgus monkey at 2 mg/kg, po
- Assay type: ADME, organism-based, Macaca fascicularis
- Design: dose 2 mg/kg, route oral
- experimental-setup: plasma
measured-quantity: AUC

Item: CC(C)(O)c1cc2nc(-c3cnc(N)nc3)nc(N3CCOCC3)c2s1 | AUC: 3.8 µM·h

###

- measurement-target: Phosphatidylinositol 4,5-bisphosphate 3-kinase catalytic subunit delta isoform (Homo sapiens)
- Sequence (O00329 whole entry, canonical isoform): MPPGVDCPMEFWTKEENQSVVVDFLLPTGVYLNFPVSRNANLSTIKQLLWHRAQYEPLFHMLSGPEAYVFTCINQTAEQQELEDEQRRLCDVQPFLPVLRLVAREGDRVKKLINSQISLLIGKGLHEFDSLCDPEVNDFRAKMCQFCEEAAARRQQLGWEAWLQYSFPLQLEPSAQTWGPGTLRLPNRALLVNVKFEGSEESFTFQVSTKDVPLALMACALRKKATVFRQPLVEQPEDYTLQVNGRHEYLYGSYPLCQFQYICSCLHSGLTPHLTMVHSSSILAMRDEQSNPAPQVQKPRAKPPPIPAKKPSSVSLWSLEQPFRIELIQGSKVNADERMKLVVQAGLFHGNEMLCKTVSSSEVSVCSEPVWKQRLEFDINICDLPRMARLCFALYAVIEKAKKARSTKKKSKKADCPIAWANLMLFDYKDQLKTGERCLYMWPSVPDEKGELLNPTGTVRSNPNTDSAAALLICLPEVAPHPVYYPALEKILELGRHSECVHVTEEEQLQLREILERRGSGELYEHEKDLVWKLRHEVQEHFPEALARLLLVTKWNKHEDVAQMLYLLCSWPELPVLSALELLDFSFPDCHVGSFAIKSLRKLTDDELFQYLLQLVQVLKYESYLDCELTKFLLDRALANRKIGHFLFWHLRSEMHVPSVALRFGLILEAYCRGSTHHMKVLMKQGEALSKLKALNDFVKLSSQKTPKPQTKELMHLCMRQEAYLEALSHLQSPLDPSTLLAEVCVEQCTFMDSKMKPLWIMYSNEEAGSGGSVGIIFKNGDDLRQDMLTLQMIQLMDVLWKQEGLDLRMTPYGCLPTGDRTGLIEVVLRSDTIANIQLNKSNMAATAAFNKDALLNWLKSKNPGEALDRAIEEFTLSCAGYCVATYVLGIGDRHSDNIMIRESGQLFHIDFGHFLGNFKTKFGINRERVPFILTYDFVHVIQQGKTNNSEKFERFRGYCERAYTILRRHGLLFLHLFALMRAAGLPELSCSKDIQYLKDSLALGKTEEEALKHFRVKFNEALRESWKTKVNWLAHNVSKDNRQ
measured-quantity: pIC50
Please report pIC50 as the negative decimal logarithm of the molar concentration, giving only the number.

* CS(=O)(=O)N1CCN(Cc2cc3nc(-c4cccc(O)c4)nc(N4CCOCC4)c3s2)CC1 | 9.05
* CS(=O)(=O)N1CCN(Cc2cc3nc(-c4ccncc4)nc(N4CCOCC4)c3s2)CC1 | 6.51
* Cc1nc(N)ncc1-c1nc(N2CCOCC2)c2sc(CN3CCN(S(C)(=O)=O)CC3)cc2n1 | 9.15
* CS(=O)(=O)N1CCN(Cc2cc3nc(-c4ccc(N)nc4)nc(N4CCOCC4)c3s2)CC1 | 8.18

Noted for CS(=O)(=O)N1CCN(Cc2cc3nc(-c4cccnc4)nc(N4CCOCC4)c3s2)CC1 : its pIC50 reads 7.92

Entry under test: Cc1nc(N)ncc1-c1nc(N2CCOCC2)c2sc(C(C)(C)O)cc2n1 . Its pIC50 was 8.28

###

- assay-name: Clearance in Sprague-Dawley rat liver microsomes
- Format: ADME, Microsome
measured-quantity: CLint scaled (mL/min/kg)
Write the answer as a number in mL/min/kg, unit excluded.

Example results:
- CC(=O)NCc1cc2nc(-c3cccc4[nH]ncc34)nc(N3CCOCC3)c2s1: 40
- CC(O)c1cc2nc(-c3cccc4[nH]ncc34)nc(N3CCOCC3)c2s1 (stereo not given): 95
- CC(C)(O)c1cc2nc(-c3cnc(N)nc3)nc(N3CCOCC3)c2s1: 23

The compound listed as CC(C)(O)c1cc2nc(-c3cccc4[nH]ncc34)nc(N3CCOCC3)c2s1 shows CLint scaled equal to 40

GET /value?item= OCc1cc2nc(-c3cccc4[nH]ncc34)nc(N3CCOCC3)c2s1 &field=CLint scaled returns 170

###

- assay-name: Protein binding in cynomolgus monkey plasma
- Type: ADME, cell-free, Macaca fascicularis
- experimental-setup: read-out: PPB (converted)
measured-quantity: fraction unbound
The answer should be written as a number, with no unit following it.

Briefly, fraction unbound measured for CC(C)(O)c1cc2nc(-c3cnc(N)nc3)nc(N3CCOCC3)c2s1 : 0.21

###

- assay-name: AUC in Sprague-Dawley rat at 5 mg/kg, po
- Format: ADME, organism-based
- Design: dose 5 mg/kg, route oral
- experimental-setup: plasma
measured-quantity: AUC
Respond with a number, then the unit of measure.

Item: CC(C)(O)c1cc2nc(-c3cnc(N)nc3)nc(N3CCOCC3)c2s1 | AUC: 21 µM·h

###

- assay-name: Oral bioavailability in Sprague-Dawley rat at 5 mg/kg, po
- Format: ADME, organism-based
- experimental-setup: in vivo
measured-quantity: bioavailability (%)
Use % as the unit, but write only the number.

* CS(=O)(=O)N1CCN(Cc2cc3nc(-c4cnc(N)nc4)nc(N4CCOCC4)c3s2)CC1 | 75

# next compound below
So, CC(C)(O)c1cc2nc(-c3cnc(N)nc3)nc(N3CCOCC3)c2s1 ? Its bioavailability was 83

###

- assay-name: Protein binding in Beagle dog plasma
- Format: ADME, cell-free, Canis lupus familiaris
- experimental-setup: read-out: PPB (converted)
measured-quantity: fraction unbound
Respond using a number only.

// recorded fraction unbound for CC(C)(O)c1cc2nc(-c3cnc(N)nc3)nc(N3CCOCC3)c2s1 : 0.27

###

- measurement-target: Serine/threonine-protein kinase mTOR (Homo sapiens)
measured-quantity: log10 of IC50 (log10 of the value in nM)
Hello, just confirming the data are log10 of IC50 with units of nM.

Observe how each entry below is paired with its result.
* Cc1nc(N)ncc1-c1nc(N2CCOCC2)c2sc(C(C)(C)O)cc2n1 | 2.88
* CC(C)(O)c1cc2nc(-c3cnc(N)nc3)nc(N3CCOCC3)c2s1 | 1.48
* CS(=O)(=O)N1CCN(Cc2cc3nc(-c4cnc(N)nc4)nc(N4CCOCC4)c3s2)CC1 | 1.46
* CC(C)(O)c1cc2nc(-c3cccc4[nH]ncc34)nc(N3CCOCC3)c2s1 | 2.11

Continue with the next molecule.
Recorded log10 of IC50 for Cc1nc(N)ncc1-c1nc(N2CCOCC2)c2sc(CN3CCN(S(C)(=O)=O)CC3)cc2n1 on Serine/threonine-protein kinase mTOR (Homo sapiens) was 2.94

###

Listed here are compounds together with their documented Vd.
- assay-name: Volume of distribution at steady state in nu/nu mouse at 1 mg/kg, iv
- Assay type: ADME, organism-based
- Design: dose 1 mg/kg, route intravenous
- experimental-setup: in vivo, read-out: Vdss
Kindly provide the numeric value in L/kg only, without the unit symbol.

compound Cc1nc(N)ncc1-c1nc(N2CCOCC2)c2sc(C(C)(C)O)cc2n1 , Vd observed: 3

Per the records, this compound ( CC(C)(O)c1cc2nc(-c3cnc(N)nc3)nc(N3CCOCC3)c2s1 ) has Vd equal to 2.8

###

- measurement-target: Aurora kinase A (Homo sapiens)
- Sequence (O14965 whole entry): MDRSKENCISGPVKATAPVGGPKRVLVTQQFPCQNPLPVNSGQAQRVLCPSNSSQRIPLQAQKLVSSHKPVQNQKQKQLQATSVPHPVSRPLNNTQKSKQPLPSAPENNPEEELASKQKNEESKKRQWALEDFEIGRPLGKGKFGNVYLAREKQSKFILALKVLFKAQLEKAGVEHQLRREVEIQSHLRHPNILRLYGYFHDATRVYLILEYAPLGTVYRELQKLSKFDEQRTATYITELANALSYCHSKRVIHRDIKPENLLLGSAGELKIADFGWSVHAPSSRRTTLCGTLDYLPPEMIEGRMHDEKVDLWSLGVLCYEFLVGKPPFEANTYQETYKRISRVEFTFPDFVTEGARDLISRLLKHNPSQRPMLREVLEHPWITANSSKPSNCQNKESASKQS
measured-quantity: IC50

Lab book: IC50 of Cc1nc(N)ncc1-c1nc(N2CCOCC2)c2sc(C(C)(C)O)cc2n1 noted as > 1 µM

###

- measurement-target: Mitogen-activated protein kinase kinase kinase 9 (Homo sapiens)
- Sequence (P80192 whole entry): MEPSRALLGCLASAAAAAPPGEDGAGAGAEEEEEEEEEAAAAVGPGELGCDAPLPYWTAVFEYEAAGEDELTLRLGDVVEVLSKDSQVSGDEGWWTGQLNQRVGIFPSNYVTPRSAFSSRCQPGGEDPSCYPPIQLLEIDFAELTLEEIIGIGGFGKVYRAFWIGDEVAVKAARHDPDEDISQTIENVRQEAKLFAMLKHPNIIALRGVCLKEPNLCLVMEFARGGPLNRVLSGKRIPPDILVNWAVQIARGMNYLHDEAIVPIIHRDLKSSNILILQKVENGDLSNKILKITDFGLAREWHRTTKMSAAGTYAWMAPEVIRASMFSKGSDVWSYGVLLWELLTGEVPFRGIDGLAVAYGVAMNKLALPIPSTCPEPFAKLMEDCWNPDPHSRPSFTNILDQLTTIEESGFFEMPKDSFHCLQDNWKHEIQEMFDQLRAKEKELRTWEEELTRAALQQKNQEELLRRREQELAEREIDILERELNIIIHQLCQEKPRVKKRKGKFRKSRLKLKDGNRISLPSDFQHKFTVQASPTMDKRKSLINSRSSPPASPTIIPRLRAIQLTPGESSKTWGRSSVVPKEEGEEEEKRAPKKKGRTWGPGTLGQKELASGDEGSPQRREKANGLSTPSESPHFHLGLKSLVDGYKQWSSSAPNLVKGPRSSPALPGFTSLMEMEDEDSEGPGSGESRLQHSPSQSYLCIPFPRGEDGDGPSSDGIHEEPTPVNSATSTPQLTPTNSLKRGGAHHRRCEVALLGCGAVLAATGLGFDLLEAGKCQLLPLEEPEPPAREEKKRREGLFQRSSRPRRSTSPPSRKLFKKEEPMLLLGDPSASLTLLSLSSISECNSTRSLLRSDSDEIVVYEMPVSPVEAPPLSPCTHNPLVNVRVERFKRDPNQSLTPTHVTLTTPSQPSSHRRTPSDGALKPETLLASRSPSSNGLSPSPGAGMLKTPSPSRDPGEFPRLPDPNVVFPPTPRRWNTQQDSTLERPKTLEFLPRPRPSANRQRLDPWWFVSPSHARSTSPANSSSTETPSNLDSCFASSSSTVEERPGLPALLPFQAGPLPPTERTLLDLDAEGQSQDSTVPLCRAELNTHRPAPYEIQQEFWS
- assay-name: Inhibition of MLK1
measured-quantity: IC50 (nM)
Supply the numeric figure in nM, leaving out any unit text.

Entry under test: CC(C)(O)c1cc2nc(-c3cnc(N)nc3)nc(N3CCOCC3)c2s1 . Its IC50 was 591

###

- assay-name: Clearance in Sprague-Dawley rat at 1 mg/kg, iv
- Format: ADME, organism-based
- Design: dose 1 mg/kg, route intravenous
- experimental-setup: in vivo
measured-quantity: clearance (mL/min/kg)
Please respond with the number in mL/min/kg and leave the unit unwritten.

Examples with answers:
• CS(=O)(=O)N1CCN(Cc2cc3nc(-c4cnc(N)nc4)nc(N4CCOCC4)c3s2)CC1 = 24
• CC(C)(O)c1cc2nc(-c3cnc(N)nc3)nc(N3CCOCC3)c2s1 = 9
• CC(C)(O)c1cc2nc(-c3cccc4[nH]ncc34)nc(N3CCOCC3)c2s1 = 16

Query CC(O)c1cc2nc(-c3cccc4[nH]ncc34)nc(N3CCOCC3)c2s1 (stereo not given) yields clearance of 101

Please fill in: clearance reported for CC(=O)NCc1cc2nc(-c3cccc4[nH]ncc34)nc(N3CCOCC3)c2s1 = 86
